- systemName: T1, LIN7C, Q9NUP9
- T1 sequence (Q9NUP9 88-185, limits assumed, looked up): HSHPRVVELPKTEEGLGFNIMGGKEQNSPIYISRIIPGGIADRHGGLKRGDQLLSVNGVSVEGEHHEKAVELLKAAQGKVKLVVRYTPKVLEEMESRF
- assayInfo: holdup assay
- Parameters: key: below the threshold = too weak to quantify, mostly under pKd 3.1 to 4
- condition: plain residues with an end cap or a label only (N-terminal biotin on a linker: ado-ado)
assayMetric: pKd

Example binders with recorded pKd:
[[record]]
binder = "VCMGDHWFDV [PRKN, O60260]"
datavalue = "below the threshold"

[[record]]
binder = "LPPPESESKV [KCNJ9, Q92806]"
datavalue = "below the threshold"

[[record]]
binder = "NNMAFETTHF [SLC5A12, Q1EHB4]"
datavalue = "below the threshold"

[[record]]
binder = "ADEMICITTL [CACNA1D, Q01668]"
datavalue = "below the threshold"

[[record]]
binder = "QLKSGRDSTV [TMEM178A, Q8NBL3]"
datavalue = 4.13


Ask: Return reported pKd. Input binder: IGHEDLETAV [DGKI, O75912]
Result: 4.57

Ask: Return reported pKd. Input binder: EKPIDSETKM [SLC1A3, P43003]
Result: below the threshold

Ask: Return reported pKd. Input binder: GQNMTVSVVI [PRLHR, P49683]
Result: below the threshold
